Data provenance is patent US8389523B2.

Here the recorded Herbicidal effects index, Echinochloa oryzicola Vasing is given for each entry.
System: Echinochloa oryzicola Vasing
Assay: Herbicidal effects in paddy field soil treatment (Test Example 1)
Type: in vivo
Set-up: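 grade 0 to 5 of growth suppression where 5 is 90% or more and 0 below 10%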
Settings: paddy field soil treatment; 1000 g of the active ingredient per hectare; wettable powder added dropwise on water surface; 21st day after treatment
Source text: Test for Herbicidal Effects in Paddy Field Soil Treatment A 100-cm^2 plastic pot was filled with paddy field soil. After puddling and leveling, seeds of Echinochloa oryzicola Vasing, Monochoria vaginalis (Burm. f.) Presl var. plantaginea (Roxb.) Solms-Laub., and Scirpus juncoides Roxb. var. ohwianus. T. Koyama were sowed, and the soil was waterlogged to a water depth of 3 cm. […]
Measurement name: Herbicidal effects index, Echinochloa oryzicola Vasing

- Compound: "O=C1CCCC(O)=C1C(=O)c1nc2ccccc2n(C2CCS(=O)(=O)C2)c1=O (stereo not drawn) [I-137]"
  Tested target: "Echinochloa oryzicola Vasing"
  Val: 5
- Compound: "N#Cc1cccc(-n2c(=O)c(C(=O)C3=C(O)CCCC3=O)nc3ccccc32)c1 [II-136]"
  Tested target: "Echinochloa oryzicola Vasing"
  Val: 5
- Compound: "COc1ccc(-n2c(=O)c(C(=O)C3=C(O)CCCC3=O)nc3ccccc32)c(Cl)c1 [II-175]"
  Tested target: "Echinochloa oryzicola Vasing"
  Val: 4
- Compound: "O=C1CCCC(O)=C1C(=O)c1nc2cccnc2n(CCF)c1=O [III-45]"
  Tested target: "Echinochloa oryzicola Vasing"
  Val: 4
- Compound: "COc1ccc(-n2c(=O)c(C(=O)C3=C(O)CCCC3=O)nc3cccc(F)c32)cc1 [II-189]"
  Tested target: "Echinochloa oryzicola Vasing"
  Val: 5
- Compound: "Cn1c(=O)c(C(=O)C2=C(O)CCCC2=O)nc2c(Cl)cccc21 [I-223]"
  Tested target: "Echinochloa oryzicola Vasing"
  Val: 4
- Compound: "O=C1CCCC(O)=C1C(=O)c1nc2ccccc2n(-c2ccc3c(c2)OCO3)c1=O [I-202]"
  Tested target: "Echinochloa oryzicola Vasing"
  Val: 5
- Compound: "COc1cc(-n2c(=O)c(C(=O)C3=C(O)CCCC3=O)nc3cc(F)ccc32)cc(OC)c1OC [II-238]"
  Tested target: "Echinochloa oryzicola Vasing"
  Val: 5
- Compound: "Cc1cnc(-n2c(=O)c(C(=O)C3=C(O)CCCC3=O)nc3ccccc32)s1 [I-380]"
  Tested target: "Echinochloa oryzicola Vasing"
  Val: 4
- Compound: "CCCOc1cccc(-n2c(=O)c(C(=O)C3=C(O)CCCC3=O)nc3ccccc32)c1 [II-71]"
  Tested target: "Echinochloa oryzicola Vasing"
  Val: 4
- Compound: "N#Cc1ccc(-n2c(=O)c(C(=O)C3=C(O)CCCC3=O)nc3ccccc32)cc1 [II-137]"
  Tested target: "Echinochloa oryzicola Vasing"
  Val: 5
- Compound: "O=C1CCCC(O)=C1C(=O)c1nc2c(F)cccc2n(-c2ccccc2)c1=O [II-233]"
  Tested target: "Echinochloa oryzicola Vasing"
  Val: 5
- Compound: "O=C1CCCC(O)=C1C(=O)c1nc2ccccc2n(-c2cccc(Cl)c2)c1=O [II-11]"
  Tested target: "Echinochloa oryzicola Vasing"
  Val: 5
- Compound: "Cc1ccc(-n2c(=O)c(C(=O)C3=C(O)CCCC3=O)nc3ccccc32)nc1 [I-178]"
  Tested target: "Echinochloa oryzicola Vasing"
  Val: 4
- Compound: "Cc1ccccc1-n1c(=O)c(C(=O)C2=C(O)CCCC2=O)nc2cccnc21 [IV-19]"
  Tested target: "Echinochloa oryzicola Vasing"
  Val: 5
